# tgt: T1, human TREM2 (human, UniProt Q9NZC2 19-230)
# T1 construct: on THP-1 WT cells and M2a-like macrophages (endogenous) and on CHO or HEK293T cells overexpressing human TREM2 with DAP12; also called hTREM2
# T1 sequence: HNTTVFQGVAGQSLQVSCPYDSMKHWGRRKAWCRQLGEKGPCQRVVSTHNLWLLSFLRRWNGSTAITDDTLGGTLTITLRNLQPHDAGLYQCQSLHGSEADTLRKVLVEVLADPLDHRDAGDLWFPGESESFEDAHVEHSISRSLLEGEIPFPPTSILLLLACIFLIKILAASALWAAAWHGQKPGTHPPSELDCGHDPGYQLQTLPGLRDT
# assay-summary: flow cytometry, competition with LDL-Alexafluor-488 on CHO cells overexpressing human TREM2/DAP12
readout-name: pIC50
pIC50 is defined as minus the log10 of a concentration measured in mol/L.

**Q:** Data request, read-out pIC50, for EOS006162 (antibody, V domains shown) VH: QVQLVQSGAEVKKPGSSVKVSCKASGGTFSSYAISWVRQAPGQGLEWMGGIIPISGTANYAQKFQGRVTITADESTSTAYMELSSLRSEDTAVYYCARTQEYTLFDSWGQGTMVTVSS VL: EIVLTQSPATLSLSPGERATLSCRASQSVSSYLAWFQQKPGQAPRLLIYDASNRATGIPARFSGSGSGTDFTLTISSLEPEDFAVYYCQQDYHWPITFGGGTKVEIK
**A:** 9.94

**Q:** Data request, read-out pIC50, for EOS006177 (antibody, V domains shown) VH: QVQLQESGPGLVKPSGTLSLTCAVSGGSISDSAWWSWVRQPPGKGLEWIGEIYHDADTNYNPSLKSRVTISVDKSKNQFSLKLSSVTAADTAVYYCARDTKYWGGMDVWGQGTTVTVSS VL: DIQMTQSPSSLSASVGDRVTITCQASQDISNYLNWYQQKPGKAPKLLIYDASNLATGVPSRFSGSGSGTDFTFTISSLQPEDIATYYCQQYVEAPTFGGGTKVEIK
**A:** 9.71

**Q:** Data request, read-out pIC50, for EOS006164 (antibody, V domains shown) VH: EVQLVESGGGLVQPGRSLRLSCTASGFTFDDYTMSWFRQAPGKGLEWVGFIGSKAYSATTEYTASVKGRFTISRDGSKSIAYLQMNSLKTEDTAVYYCARGKRYSYTYWTPAFDVWGQGTMVTVSS VL: DIQMTQSPSSLSASVGDRVTITCQASQDITNYLNWYQQKPGKAPKLLIYDASNLETGVPSRFSGSGSGTDFTFTISSLQPEDIATYYCQEYDSYITFGGGTKVEIK
**A:** 9.58

**Q:** Data request, read-out pIC50, for EOS006166 (antibody, V domains shown) VH: EVQLVESGGGLVQPGRSLRLSCTASGFTFGDYAMSWFRQAPGKGLEWVGFIGSKAYGGTTEYTASVKGRFTISRDGSKSIAYLQMNSLKTEDTAVYYCARGKRYSYGYWHPAFDVWGQGTMVTVSS VL: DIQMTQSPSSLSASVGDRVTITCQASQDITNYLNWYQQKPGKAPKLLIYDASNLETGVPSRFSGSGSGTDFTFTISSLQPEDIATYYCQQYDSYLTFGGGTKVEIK
**A:** 9.06

**Q:** Data request, read-out pIC50, for EOS006172 (antibody, V domains shown) VH: QVQLVQSGAEVKKPGSSVKVSCKASGGTFSSYAISWVRQAPGQGLEWMGGIIPISGTANYAQKFQGRVTITADESTSTAYMELSSLRSEDTAVYYCARTQEYTLFDIWGQGTMVTVSS VL: EIVLTQSPATLSLSPGERATLSCRASQSVSSYLAWFQQKPGQAPRLLIYDASNRATGIPARFSGSGSGTDFTLTISSLEPEDFAVYYCQQDFHWPITFGGGTKVEIK
**A:** 9.94

**Q:** Data request, read-out pIC50, for EOS006165 (antibody, V domains shown) VH: QVQLVQSGAEVKKPGSSVKVSCKASGGTFSSYAISWVRQAPGQGLEWMGGIIPISGTANYAQKFQGRVTITADESTSTAYMELSSLRSEDTAVYYCARTQEYTAFDIWGQGTMVTVSS VL: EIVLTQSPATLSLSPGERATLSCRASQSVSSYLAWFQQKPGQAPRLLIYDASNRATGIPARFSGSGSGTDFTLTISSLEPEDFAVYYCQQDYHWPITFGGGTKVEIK
**A:** 8.28

These data points were gathered from patent US20250282868A1.
